Biological target: Protein tyrosine phosphatase 1B (PTP1B) (Homo sapiens)
Construct: gene PTPN1
Sequence (P18031 1-435): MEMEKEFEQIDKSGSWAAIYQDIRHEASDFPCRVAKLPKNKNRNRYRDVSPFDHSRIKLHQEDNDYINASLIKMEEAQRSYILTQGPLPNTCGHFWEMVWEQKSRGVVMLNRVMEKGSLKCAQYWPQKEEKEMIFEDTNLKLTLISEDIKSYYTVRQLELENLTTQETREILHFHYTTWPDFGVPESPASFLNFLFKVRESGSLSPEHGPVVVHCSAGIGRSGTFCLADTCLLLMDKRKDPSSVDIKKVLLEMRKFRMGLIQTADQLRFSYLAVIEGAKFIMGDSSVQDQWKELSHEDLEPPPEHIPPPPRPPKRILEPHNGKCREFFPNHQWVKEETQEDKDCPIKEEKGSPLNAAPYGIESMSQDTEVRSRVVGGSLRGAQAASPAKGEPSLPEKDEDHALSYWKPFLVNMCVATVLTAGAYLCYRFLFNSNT
Assay: pNPP phosphatase assay with commercial PTP1B, absorbance at […] nm
Assay type: biochemical
pIC50: −log10 of the molar value.
endpoint_label: pIC50

[[record]]
compound = "COc1cc2c(=O)c(-c3ccc(O)cc3)coc2cc1O[C@@H]1O[C@H](CO)[C@@H](O)[C@H](O)[C@H]1O (single isomer, unassigned) [peak 9, glycitin]"
tgt = "Protein tyrosine phosphatase 1B (PTP1B) (Homo sapiens)"
endpoint_label = "pIC50"
recorded_value = 4.63


[1] COc1ccc(-c2coc3c([C@@H]4O[C@H](CO)[C@@H](O)[C@H](O)[C@H]4O)c(O)ccc3c2=O)cc1 (single isomer, unassigned) [peak 12, 4′-methoxypuerarin]
[2] O=c1c(-c2ccc(O)cc2)coc2cc(O[C@@H]3O[C@H](CO)[C@@H](O)[C@H](O)[C@H]3O)cc(O)c12 (single isomer, unassigned) [peak 11, genistin]
Recorded pIC50 values differ for 1 and 2 ; which one is higher? Reply briefly: the label of your chosen item.
1
(1: 4.66, 2: 4.42)

FYI, the data here is from paper PMC11207073.
